Target: human β3 adrenergic receptor (Homo sapiens)
Construct: stably transfected with the cloned β-adrenergic receptor (β1, β2 or β3); expressed in transfected cells; host or cells: Chinese hamster ovary (CHO) cells, stably transfected
Sequence (P13945 whole entry): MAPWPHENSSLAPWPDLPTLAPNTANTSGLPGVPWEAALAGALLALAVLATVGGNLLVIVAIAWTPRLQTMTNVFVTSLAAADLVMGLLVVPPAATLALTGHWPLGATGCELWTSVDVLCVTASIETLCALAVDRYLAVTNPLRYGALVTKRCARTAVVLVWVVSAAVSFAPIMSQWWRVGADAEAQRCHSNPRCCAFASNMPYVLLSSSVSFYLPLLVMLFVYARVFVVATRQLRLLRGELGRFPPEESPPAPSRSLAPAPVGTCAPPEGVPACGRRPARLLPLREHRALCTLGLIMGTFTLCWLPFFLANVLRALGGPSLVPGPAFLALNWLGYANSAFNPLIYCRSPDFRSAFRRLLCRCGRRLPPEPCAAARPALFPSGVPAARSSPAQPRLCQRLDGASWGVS
Test: Functional assay: cAMP production (LANCE TR-FRET) in CHO cells stably transfected with cloned β3 adrenergic receptor
Assay type: cell-based
Conditions: Table 4; cAMP production, CHO cells expressing human β3 AR; read-out: Human β3 functional
METRIC: EC50

[[record]]
compound = "O=S(=O)(Nc1ccc(CC2CC[C@H]([C@H](O)c3cccnc3)N2)cc1)c1ccccc1I (stereo partly shown) [Example 238]"
metric = "EC50"
measured_result = "101 to 1000 nM"


Dear colleague, could you send me EC50 for each of the items below? Thanks.
1. O=S(=O)(Nc1ccc(CC2CC[C@H]([C@H](O)c3cccnc3)N2)cc1)c1ccc(-c2cnco2)cc1 (stereo partly shown) [Example 232]
2. O=S(=O)(Nc1ccc(CC2CC[C@H]([C@H](O)c3cccnc3)N2)cc1)c1ccc2ccccc2c1 (stereo partly shown) [Example 225]
3. N#Cc1ccccc1S(=O)(=O)Nc1ccc(CC2CC[C@H]([C@H](O)c3cccnc3)N2)cc1 (stereo partly shown) [Example 235]
4. O=S(=O)(Cc1ccccn1)Nc1ccc(CC2CC[C@H]([C@H](O)c3cccnc3)N2)cc1 (stereo partly shown) [Example 226]
5. O=S(=O)(Nc1ccc(CC2CC[C@H]([C@H](O)c3cccnc3)N2)cc1)c1ccc(-n2cccn2)cc1 (stereo partly shown) [Example 227]

1: 11 to 100 nM; 2: 11 to 100 nM; 3: 101 to 1000 nM; 4: 101 to 1000 nM; 5: 11 to 100 nM

Using the record for O=c1ccc2cc(S(=O)(=O)Nc3ccc(CC4CC[C@H]([C@H](O)c5cccnc5)N4)cc3)ccc2o1 (stereo partly shown) [Example 234] , state its measured EC50. 101 to 1000 nM
